assay: Cytotoxicity against human neutrophils assessed as increase in LDH level relative to control; assay type: cell-based; conditions: neutrophil
RECORDED_METRIC: Activity

C[C@H]1CC[C@@]2(OC1)O[C@H]1C[C@H]3[C@@H]4CC=C5C[C@@H](O[C@@H]6O[C@H](CO)[C@@H](O[C@@H]7O[C@@H](C)[C@H](O)[C@@H](O)[C@H]7O)[C@H](O)[C@H]6O[C@@H]6O[C@@H](C)[C@H](O)[C@@H](O)[C@H]6O)CC[C@]5(C)[C@H]4CC[C@]3(C)[C@H]1[C@@H]2C	Toxic
C[C@H]1CC[C@@]2(OC1)O[C@H]1C[C@H]3[C@@H]4CC[C@H]5C[C@@H](O[C@@H]6O[C@H](CO)[C@@H](O[C@@H]7O[C@@H](C)[C@H](O)[C@@H](O)[C@H]7O)[C@H](O)[C@H]6O[C@@H]6O[C@@H](C)[C@H](O)[C@@H](O)[C@H]6O)CC[C@]5(C)[C@H]4CC[C@]3(C)[C@H]1[C@@H]2C	Toxic
C[C@H]1CC[C@]2(OC1)O[C@H]1C[C@H]3[C@@H]4CC=C5C[C@@H](O[C@@H]6O[C@H](CO)[C@@H](O[C@@H]7O[C@@H](C)[C@H](O)[C@@H](O)[C@H]7O)[C@H](O)[C@H]6O[C@@H]6O[C@@H](C)[C@H](O)[C@@H](O)[C@H]6O)CC[C@]5(C)[C@H]4CC[C@]3(C)[C@H]1[C@H]2C [BORASSOSIDE E]	Toxic

* * *

Entries annotated with measured IC50
test: Cytotoxicity against human Hep3B cells by MTT assay; format: functional, cell-based, Hep 3B2
The response must be a number in µg/mL with no trailing unit.

Reference set (2 entries):
C[C@H]1CC[C@@]2(OC1)O[C@H]1C[C@H]3[C@@H]4CC[C@H]5C[C@@H](O[C@@H]6O[C@H](CO)[C@@H](O[C@@H]7O[C@@H](C)[C@H](O)[C@@H](O)[C@H]7O)[C@H](O)[C@H]6O[C@@H]6O[C@@H](C)[C@H](O)[C@@H](O)[C@H]6O)CC[C@]5(C)[C@H]4CC[C@]3(C)[C@H]1[C@@H]2C	3.32
C[C@H]1CC[C@]2(OC1)O[C@H]1C[C@H]3[C@@H]4CC=C5C[C@@H](O[C@@H]6O[C@H](CO)[C@@H](O[C@@H]7O[C@@H](C)[C@H](O)[C@@H](O)[C@H]7O)[C@H](O)[C@H]6O[C@@H]6O[C@@H](C)[C@H](O)[C@@H](O)[C@H]6O)CC[C@]5(C)[C@H]4CC[C@]3(C)[C@H]1[C@H]2C [BORASSOSIDE E]	2.03

Here is the next item to consider.
Query: Look at this compound and give its reported IC50. C[C@H]1CC[C@@]2(OC1)O[C@H]1C[C@H]3[C@@H]4CC=C5C[C@@H](O[C@@H]6O[C@H](CO)[C@@H](O)[C@H](O)[C@H]6O[C@@H]6O[C@@H](C)[C@H](O)[C@@H](O)[C@H]6O)CC[C@]5(C)[C@H]4CC[C@]3(C)[C@H]1[C@@H]2C
Result: 6.98

* * *

test: Cytotoxicity against human Hep3B cells by MTT assay; format: functional, cell-based, Hep 3B2
Entries annotated with measured IC50
The response must be a number in µg/mL with no trailing unit.

Reference set (3 entries):
C[C@H]1CC[C@]2(OC1)O[C@H]1C[C@H]3[C@@H]4CC=C5C[C@@H](O[C@@H]6O[C@H](CO)[C@@H](O)[C@H](O)[C@H]6O[C@@H]6O[C@@H](C)[C@H](O)[C@@H](O)[C@H]6O)CC[C@]5(C)[C@H]4CC[C@]3(C)[C@H]1[C@H]2C	2.95
COc1cccc2c1C(=O)c1c(O)c3c(c(O)c1C2=O)C[C@@](O)(C(=O)CO)C[C@@H]3O[C@H]1C[C@H](N)[C@H](O)[C@H](C)O1	1.31
O=C(/C=C/c1ccc(O)cc1)NCCc1ccc(O)cc1	11.2

Here is the next item to consider.
Query: Look at this molecule and give its reported IC50. C[C@H]1CC[C@@]2(OC1)O[C@H]1C[C@H]3[C@@H]4CC=C5C[C@@H](O[C@@H]6O[C@H](CO)[C@@H](O[C@@H]7O[C@@H](C)[C@H](O)[C@@H](O)[C@H]7O)[C@H](O)[C@H]6O[C@@H]6O[C@@H](C)[C@H](O)[C@@H](O)[C@H]6O)CC[C@]5(C)[C@H]4CC[C@]3(C)[C@H]1[C@@H]2C
Result: 2.87
